B1: POLD4 (parent)
chain: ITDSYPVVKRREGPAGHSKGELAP

# Variants of: B1
# assay-summary: protein stability index of a GFP-peptide fusion (GPS, HEK-293T) (PSI 1-6); higher = more stable;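 further: lentivirally expressed fusions sorted by FACS into six bins by GFP to DsRed ratio, PSI derived from sequencing read proportions per bin multiplied by bin number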
# assay-setup: c terminus: a fixed tail appended
Decide using protein stability index: a value greater than or equal to 4 is Satisfied, a smaller one is Not satisfied.

Check out these entries, answers already filled in.
P14C Not satisfied
E12N Not satisfied
E21D Not satisfied
R10C Not satisfied
A23H Not satisfied
E12A Not satisfied
K19Q Not satisfied
T2P Not satisfied

Below: the item to evaluate.
Does protein stability index meet or surpass 4 for "K9A" ? Satisfied
